B1: library; numbered along this chain (parent)
chain: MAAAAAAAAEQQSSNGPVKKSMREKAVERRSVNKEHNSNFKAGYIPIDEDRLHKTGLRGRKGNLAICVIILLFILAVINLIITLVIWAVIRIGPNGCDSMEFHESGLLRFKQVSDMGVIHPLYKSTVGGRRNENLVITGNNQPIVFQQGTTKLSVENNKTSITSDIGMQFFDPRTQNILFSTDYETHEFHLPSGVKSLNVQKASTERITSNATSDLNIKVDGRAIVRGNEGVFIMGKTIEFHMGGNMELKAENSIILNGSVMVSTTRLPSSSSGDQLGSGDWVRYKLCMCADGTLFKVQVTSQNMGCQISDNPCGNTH

# Variants of: B1
# assaySummary: SGCB cell-surface expression functional score (HA stain, bin4 vs bin1, normalised to synonymous) (log10 ratio); higher = more cell-surface SGCB (functional)
quantity: SGCB cell-surface expression functional score (log10)
// response body must contain only the number

Worked examples, 5 variants total:
variantDescription: L249D
endpointValue: -1.06

variantDescription: F189T
endpointValue: -1.23

variantDescription: V27K
endpointValue: 0.02

variantDescription: E101S
endpointValue: -0.39

variantDescription: S270M
endpointValue: 0.77

Query: // query SGCB cell-surface expression functional score (log10) value for entry V263R
Result: -0.48

Query: // query SGCB cell-surface expression functional score (log10) value for entry L64E
Result: -0.26

Query: // query SGCB cell-surface expression functional score (log10) value for entry Q303L
Result: -0.16

Query: // query SGCB cell-surface expression functional score (log10) value for entry T301P
Result: -0.57

Query: // query SGCB cell-surface expression functional score (log10) value for entry G274Q
Result: -0.28
